Values were extracted from paper PMC3742363.

- test target: p38α T106Q (Mus musculus, UniProt P47811, T106Q)
- Sequence (P47811 whole entry T106Q): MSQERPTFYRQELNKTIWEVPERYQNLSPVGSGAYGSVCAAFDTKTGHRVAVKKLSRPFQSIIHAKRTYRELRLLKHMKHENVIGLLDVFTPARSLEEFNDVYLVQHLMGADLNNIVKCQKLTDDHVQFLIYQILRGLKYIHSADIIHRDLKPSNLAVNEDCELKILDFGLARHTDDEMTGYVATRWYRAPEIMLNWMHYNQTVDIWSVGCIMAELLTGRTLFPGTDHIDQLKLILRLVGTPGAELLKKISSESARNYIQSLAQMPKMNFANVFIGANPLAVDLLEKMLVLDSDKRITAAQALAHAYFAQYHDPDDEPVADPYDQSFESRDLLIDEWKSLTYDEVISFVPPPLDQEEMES
- assay name: Kinase activity assay
value kind: Ki (µM)
Give the number; µM is assumed, so skip it.

Summary line: Cc1ccc(C(=O)Nc2ccc(CN3CCN(C)CC3)c(C(F)(F)F)c2)cc1C#Cc1cnc2cccnn12 , p38α T106Q (Mus musculus, UniProt P47811, T106Q), reported Ki = 3.7

###

- test target: p38α wt (Mus musculus, UniProt P47811)
- Sequence (P47811 whole entry): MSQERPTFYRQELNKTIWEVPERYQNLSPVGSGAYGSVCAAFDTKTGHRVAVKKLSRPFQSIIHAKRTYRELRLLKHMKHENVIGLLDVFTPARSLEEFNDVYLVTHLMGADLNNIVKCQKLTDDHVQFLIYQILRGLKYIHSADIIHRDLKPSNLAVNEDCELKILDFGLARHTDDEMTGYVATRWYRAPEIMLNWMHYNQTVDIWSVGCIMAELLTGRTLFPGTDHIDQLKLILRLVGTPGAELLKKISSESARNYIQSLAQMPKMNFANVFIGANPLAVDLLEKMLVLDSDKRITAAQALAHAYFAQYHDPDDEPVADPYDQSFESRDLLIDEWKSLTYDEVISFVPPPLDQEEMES
value kind: Ki
Answer by giving the amount and then stating its unit.

Summary line: Cc1ccc(C(=O)Nc2ccc(CN3CCN(C)CC3)c(C(F)(F)F)c2)cc1C#Cc1cnc2cccnn12 , p38α wt (Mus musculus, UniProt P47811), reported Ki = 8.1 nM
